// provenance: patent US5132424A

Tested on: ACAT enzyme
Assay: ACAT Inhibition Assay (inhibition of cholesterol esterification in cultured Fu5AH rat hepatoma cells)
Type: cell-based
Conditions: 15.0 ug/ml; Fu5AH cells, 18 hours
observable: % Inhib. of Chol. Esterf. (%)
API: value field is a number in %; no unit string.

# compound, % Inhib. of Chol. Esterf. (%)
records = [
    ("O=C1c2c(c(=O)n3nc(-c4ccccc4)cc3n2Cc2ccccc2)CN1C1CCCCC1 [Example 2]", 93.6),
    ("O=C1c2c(c(=O)n3nc(-c4ccccc4)cc3n2Cc2ccccc2)CN1c1ccccc1 [Example 7]", 15.0),
    ("CCCCCCn1c2c(c(=O)n3nc(-c4ccccc4)cc13)CN(C1CCCCC1)C2=O [Example 3]", 49.2),
    ("O=C1c2c(c(=O)n3nc(-c4ccccc4)cc3n2Cc2ccccc2)CN1Cc1ccccc1 [Example 8]", 92.3),
    ("O=C1c2c(c(=O)n3nc(-c4ccccc4)cc3n2Cc2ccccc2)CCN1C1CCCCC1 [Example 9]", 89.8),
]

*Q* Enter reported % Inhib. of Chol. Esterf. observed with ACAT enzyme for O=C1c2c(c(=O)n3nc(-c4ccccc4)cc3n2CC(O)c2ccccc2)CN1C1CCCCC1 (stereo not drawn) [Example 14]
*A* 40.2

*Q* Enter reported % Inhib. of Chol. Esterf. observed with ACAT enzyme for O=C1c2c(c(=O)n3nc(-c4ccc(O)cc4)cc3n2Cc2ccccc2)CN1C1CCCCC1 [Example 16]
*A* 66.5

*Q* Enter reported % Inhib. of Chol. Esterf. observed with ACAT enzyme for C=CCCCCn1c2c(c(=O)n3nc(-c4ccccc4)cc13)CN(C1CCCCC1)C2=O [Example 1]
*A* 96.1

*Q* Enter reported % Inhib. of Chol. Esterf. observed with ACAT enzyme for O=C1c2c(c(=O)n3ncc(-c4ccccc4)c3n2Cc2ccccc2)CN1C1CCCCC1 [Example 10]
*A* 9.1

*Q* Enter reported % Inhib. of Chol. Esterf. observed with ACAT enzyme for O=C(Cn1c2c(c(=O)n3nc(-c4ccccc4)cc13)CN(C1CCCCC1)C2=O)c1ccccc1 [Example 4]
*A* 91.9

*Q* Enter reported % Inhib. of Chol. Esterf. observed with ACAT enzyme for C=CCOc1ccc(-c2cc3n(Cc4ccccc4)c4c(c(=O)n3n2)CN(C2CCCCC2)C4=O)cc1 [Example 15]
*A* 84.3

*Q* Enter reported % Inhib. of Chol. Esterf. observed with ACAT enzyme for CCOc1ccc(-c2cc3n(Cc4ccccc4)c4c(c(=O)n3n2)CN(C2CCCCC2)C4=O)cc1 [Example 6]
*A* 87.2

---

Tested on: ACAT enzyme
Assay: ACAT Inhibition Assay (inhibition of cholesterol esterification in cultured Fu5AH rat hepatoma cells)
Type: cell-based
Parameters: key: Active: Compounds with ACAT inhibiting activity equal to, or greater than, that of chloropromazine are declared active
Settings: 15.0 ug/ml; compared with chlorpromazine
observable: Activity

# compound, Activity
measured = [
    ("C=CCOc1ccc(-c2cc3n(Cc4ccccc4)c4c(c(=O)n3n2)CN(C2CCCCC2)C4=O)cc1", "Active"),
    ("O=C1c2c(c(=O)n3nc(-c4ccc(O)cc4)cc3n2Cc2ccccc2)CN1C1CCCCC1", "Active"),
    ("O=C1c2c(c(=O)n3nc(-c4ccccc4)cc3n2Cc2ccccc2)CN1Cc1ccccc1", "Active"),
    ("CCCCCCn1c2c(c(=O)n3nc(-c4ccccc4)cc13)CN(C1CCCCC1)C2=O", "Active"),
    ("O=C1c2c(c(=O)n3nc(-c4ccccc4)cc3n2Cc2ccccc2)CN1c1ccccc1", "Inactive"),
]

Now for another entry.
*Q* Data request, read-out Activity, for `O=C1c2c(c(=O)n3ncc(-c4ccccc4)c3n2Cc2ccccc2)CN1C1CCCCC1`
*A* Inactive
